- target.entity: T1, HLA-A2/E6 (29-38) tetramer (human; HPV 16)
- T1 construct: also called E6(29-38) peptide-MHC tetramer; E6(29-38)-loaded tetramer
- assay.comment: tetramer flow cytometry; transfected Jurkat-derived cells, CD8+ population
% cells in E6 tet+/CD8- quadrant values, listed per item
assay.metric: % cells in E6 tet+/CD8- quadrant (%)

# binder, meas.value
records = [
    ("TCR 27 (codon optimized, cysteine modified version) (TCR, V domains shown) V domain 1: DAKTTQPNSMESNEEEPVHLPCNHSTISGTDYIHWYRQLPSQGPEYVIHGLTSNVNNRMASLAIAEDRKSSTLILHRATLRDAAVYYCILRVPPQSGGYQKVTFGTGTKLQVIP V domain 2: NAGVTQTPKFQVLKTGQSMTLQCAQDMNHNSMYWYRQDPGMGLRLIYYSASEGTTDKGEVPNGYNVSRLNKREFSLRLESAAPSQTSVYFCASSEFGSLNEKLFFGSGTQLSVLE", 0.02),
    ("modified version of TCR 13 (codon optimized, cysteine modified) (TCR, V domains shown) V domain 1: AQSVTQLDSHVSVSEGTPVLLRCNYSSSYSPSLFWYVQHPNKGLQLLLKYTSAATLVKGINGFEAEFKKSETSFHLTKPSAHMSDAAEYFCVVRGGKLIFGQGTELSVKP V domain 2: GAGVSQSPRYKVAKRGQDVALRCDPISGHVSLFWYQQALGQGPEFLTYFQNEAQLDKSGLPSDRFFAERPEGSVSTLKIQRTQQEDSAVYLCASSPTGTERELFFGEGSRLTVLE", 0.064),
    ("TCR 18 (codon optimized, cysteine modified version) (TCR, V domains shown) V domain 1: KQEVTQIPAALSVPEGENLVLNCSFTDSAIYNLQWFRQDPGKGLTSLLLIQSSQREQTSGRLNASLDKSSGRSTLYIAASQPGDSATYLCAEGNAGGTSYGKLTFGQGTILTVHP V domain 2: DVKVTQSSRYLVKRTGEKVFLECVQDMDHENMFWYRQDPGLGLRLIYFSYDVKMKEKGDIPEGYSVSREKKERFSLILESASTNQTSMYLCASSFWGRSNSPLHFGNGTRLTVTE", 0.045),
    ("TCR 21 (codon optimized, cysteine modified version) (TCR, V domains shown) V domain 1: AQKITQTQPGMFVQEKEAVTLDCTYDTSDQSYGLFWYKQPSSGEMIFLIYQGSYDEQNATEGRYSLNFQKARKSANLVISASQLGDSAMYFCAMREGRVTGGGNKLTFGTGTQLKVEL V domain 2: NAGVTQTPKFQVLKTGQSMTLQCAQDMNHNSMYWYRQDPGMGLRLIYYSASEGTTDKGEVPNGYNVSRLNKREFSLRLESAAPSQTSVYFCASRPWGNQNTEAFFGQGTRLTVVE", 0.22),
    ("TCR 22 (codon optimized, cysteine modified version) (TCR, V domains shown) V domain 1: GQNIDQPTEMTATEGAIVQINCTYQTSGFNGLFWYQQHAGEAPTFLSYNVLDGLEEKGRFSSFLSRSKGYSYLLLKELQMKDSASYLCAVRARMDSNYQLIWGAGTKLIIKP V domain 2: DAGVTQSPTHLIKTRGQHVTLRCSPISGHKSVSWYQQVLGQGPQFIFQYYEKEERGRGNFPDRFSARQFPNYSSELNVNALLLGDSALYLCASSRTENYGYTFGSGTRLTVVE", 0.14),
]
